Data provenance: patent US20260209345A1

- study_target: T1, recombinant LILRB1 ECD (human, UniProt Q8NHL6 24-461)
- T1 construct: also called biotinylated LILRB1 ECD
- T1 sequence (Q8NHL6 24-461 limits assumed): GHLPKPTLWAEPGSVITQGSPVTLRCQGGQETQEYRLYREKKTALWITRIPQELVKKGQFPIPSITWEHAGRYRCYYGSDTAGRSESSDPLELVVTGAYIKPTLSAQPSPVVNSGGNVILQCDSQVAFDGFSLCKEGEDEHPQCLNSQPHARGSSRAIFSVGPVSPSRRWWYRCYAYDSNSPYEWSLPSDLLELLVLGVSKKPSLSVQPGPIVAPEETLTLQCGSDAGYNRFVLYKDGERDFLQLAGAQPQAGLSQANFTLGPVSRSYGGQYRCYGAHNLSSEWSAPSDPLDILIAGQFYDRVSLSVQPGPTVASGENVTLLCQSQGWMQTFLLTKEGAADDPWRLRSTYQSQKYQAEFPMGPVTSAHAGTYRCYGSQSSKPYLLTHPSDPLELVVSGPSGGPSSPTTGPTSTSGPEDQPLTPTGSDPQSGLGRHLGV
- test_description: ELISA, LILRB1 ECD binding to HLA-G-Fc
experimental_readout: pIC50
In textbook form, pIC50 equals minus log to base ten of the concentration in mol/L.

Use the examples below as a reference point.
- A-013 (antibody, V domains shown, tested as IgG) VH: QVQLVQSGAEVKKPGSSVKVSCKASGGTFRQEAFSWVRQAPGQGLEWMGSIIPIFYSSNYAQKFQGRVTITADESTSTAYMELSSLRSEDTAVYYCAKDLGTYSSGWPYYYGMDVWGQGTTVTVSS VL: SYELTQPPSVSVSPGQTASITCSGDKLGDKYASWYQQKPGQSPVLVIYQDSKRPSGIPERFSGSNSGNTATLTISGTQAEDEADYYCQSTTHTSFVFGGGTKLTVL: 8.35
- A-008 (antibody, V domains shown, tested as IgG) VH: QVQLVQSGAEVKKPGSSVKVSCKASGGTFAESAILWVRQAPGQGLEWMGGIVPSFYSANYAQKFQGRVTITADESTSTAYMELSSLRSEDTAVYYCAKDLGTYSSGWPYYYGMDVWGQGTTVTVSS VL: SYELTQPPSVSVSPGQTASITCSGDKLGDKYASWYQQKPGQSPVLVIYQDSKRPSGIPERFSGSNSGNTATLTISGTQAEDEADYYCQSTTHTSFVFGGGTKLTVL: 8.39

Now for a further binder.
Noted for A-022 (antibody, V domains shown, tested as IgG) VH: QVQLVQSGAEVKKPGSSVKVSCKASGGTFGGSAISWVRQAPGQGLEWMGGIVLAYSTSVYAQKFQGRVTITADESTSTAYMELSSLRSEDTAVYYCAKGPPVGSSSWYTDWYFDLWGRGTLVTVSS VL: SYELTQPPSVSVSPGQTASITCSGDKLGDKYASWYQQKPGQSPVLVIYQDSKRPSGIPERFSGSNSGNTATLTISGTQAEDEADYYCLSYGAHSHGVVFGGGTKLTVL : its pIC50 reads 8.41
